Origin of values: patent US20260049084A1

- SYSTEM: Recombinant human ENPP3 protein (Homo sapiens (Human))
- Sequence (O14638 whole entry): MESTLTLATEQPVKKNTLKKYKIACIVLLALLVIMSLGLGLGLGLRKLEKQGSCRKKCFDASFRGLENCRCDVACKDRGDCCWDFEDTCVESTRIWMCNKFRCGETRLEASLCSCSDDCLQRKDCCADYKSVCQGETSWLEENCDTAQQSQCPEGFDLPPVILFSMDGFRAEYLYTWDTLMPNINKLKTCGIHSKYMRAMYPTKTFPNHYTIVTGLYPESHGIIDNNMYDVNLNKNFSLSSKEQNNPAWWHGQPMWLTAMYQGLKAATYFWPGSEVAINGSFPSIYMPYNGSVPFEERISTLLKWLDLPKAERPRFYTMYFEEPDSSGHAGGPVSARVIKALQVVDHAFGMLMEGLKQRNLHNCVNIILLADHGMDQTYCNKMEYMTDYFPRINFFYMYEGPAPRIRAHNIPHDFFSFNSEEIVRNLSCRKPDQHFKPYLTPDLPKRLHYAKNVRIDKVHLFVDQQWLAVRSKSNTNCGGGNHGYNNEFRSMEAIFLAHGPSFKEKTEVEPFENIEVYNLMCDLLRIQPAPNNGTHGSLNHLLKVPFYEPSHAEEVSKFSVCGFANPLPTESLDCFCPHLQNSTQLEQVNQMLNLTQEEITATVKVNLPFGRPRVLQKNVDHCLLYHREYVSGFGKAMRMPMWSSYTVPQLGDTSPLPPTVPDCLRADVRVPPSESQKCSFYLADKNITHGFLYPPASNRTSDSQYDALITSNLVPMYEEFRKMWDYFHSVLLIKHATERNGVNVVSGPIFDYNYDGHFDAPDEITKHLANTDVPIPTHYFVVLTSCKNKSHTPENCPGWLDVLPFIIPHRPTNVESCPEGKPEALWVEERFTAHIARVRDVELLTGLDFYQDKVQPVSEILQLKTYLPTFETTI
- METHOD: ENPP3 cGAMP Biochemical Assay
- CONDITIONS: 70.5 nM ENPP3, 120 μM 2′3′-cGAMP substrate, TR-FRET
pIC50: −log10 of the molar value.
OBSERVABLE: pIC50

Consider the following illustrative entries.
C#CCn1nc(Cl)c2c(NCc3ccc(S(=N)(=O)NC)cc3)ccnc21 (stereo in doubt) [Compound 10C] : 7.00 to 8.00
C#CCn1nc(Cl)c2c(N(C)Cc3ccc(S(N)(=O)=NC)cc3)ccnc21 (stereo not shown) : 6.00 to 7.00
N#CCn1nc(Cl)c2c(NCC3CCN([S@](N)(=O)=NC#N)CC3)ccnc21 [Compound 15F] : > 8.00
CCn1ncc2c(NCc3ccc(S(=N)(N)=O)cc3)cc(-c3ncc[nH]3)nc21 (stereo not shown) : 6.00 to 7.00
C#CCn1nc(Cl)c2c(NCC3CCN([S@@](C)(=O)=NC#N)CC3)ccnc21 [Compound 14I] : ≤ 6.00
CCn1nc(Cl)c2c(NCc3ccc(S(=N)(N)=O)cc3)ccnc21 (stereo not shown) [Compound 11C] : ≤ 6.00

Prompt: Given the entry CCn1nc(Cl)c2c(NCc3ccc([S@@](C)(=N)=O)cc3)ccnc21 , report its measured pIC50.
Response: ≤ 6.00

Prompt: Given the entry CCn1nc(Cl)c2c(NCc3ccc(S(N)(=O)=NCC(F)(F)F)cc3)ccnc21 (stereo not shown) [Compound 12E] , report its measured pIC50.
Response: ≤ 6.00
